Provenance of the data: paper PMC3873602

target system: H-2 I-A^b (mouse)
experiment summary: radioligand binding; competitive inhibition assay: peptides displace a high affinity radio-labeled I-A^b ligand from purified MHC; (label) < (MHC) and IC50 ≥ (MHC), so that IC50 values approximate the true Kd
pIC50: −log10 of the molar value.
quantity measured: pIC50

Answered examples (3):
{"columns": ["binder", "pIC50"],
 "data": [
  ["SSTESASYYPLTGDTR [ApoB_(978–993)-related peptide, position 985, 16 residues]", 5.90],
  ["NVYLNSKGTRSSVRLQ [ApoB_(3501–3516)-related peptide, position 3513, 16 residues]", 6.04],
  ["HLEYVSSELRKSLQV [mouse ApoB-100 peptide 4054–4069]", 4.65]
]}

A: SGSVANEANVYLNSKG [ApoB_(3501–3516)-related peptide, position 3505, 16 residues]
B: SSFLSQEYSGSVANEA [ApoB_(3501–3516)-related peptide, position 3497, 16 residues]
C: TTGAYSNASSTESASY [ApoB_(978–993)-related peptide, position 977, 16 residues]
Order the records by pIC50, with each subsequent value no larger than the one before. Write the labels in rank order as requested.
B, C, A
